Biological target: Cholinesterase (Equus caballus, UniProt P81908)
Sequence (P81908 whole entry): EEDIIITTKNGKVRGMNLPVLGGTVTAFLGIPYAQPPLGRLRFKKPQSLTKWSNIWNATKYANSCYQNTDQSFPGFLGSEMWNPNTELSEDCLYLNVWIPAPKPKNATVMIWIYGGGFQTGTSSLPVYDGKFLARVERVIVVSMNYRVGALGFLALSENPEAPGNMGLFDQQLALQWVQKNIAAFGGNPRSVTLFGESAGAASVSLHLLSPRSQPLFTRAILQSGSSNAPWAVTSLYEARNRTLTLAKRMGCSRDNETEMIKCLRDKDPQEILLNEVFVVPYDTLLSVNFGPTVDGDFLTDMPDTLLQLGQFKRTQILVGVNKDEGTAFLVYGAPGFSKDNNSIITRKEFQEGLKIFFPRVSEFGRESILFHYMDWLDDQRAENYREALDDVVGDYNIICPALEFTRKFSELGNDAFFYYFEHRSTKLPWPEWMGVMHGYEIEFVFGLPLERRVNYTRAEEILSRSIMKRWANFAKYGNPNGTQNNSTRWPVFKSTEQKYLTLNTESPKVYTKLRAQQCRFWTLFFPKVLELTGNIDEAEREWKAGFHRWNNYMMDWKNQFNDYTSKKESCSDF
Assay: Mixed type inhibition of equine serum BChE assessed as inhibition constant by Lineweaver-Burk plot analysis
reported-property: Ki (nM)
Return type: number; implicit unit nM.

Given item COc1cc(OC)c2c(=O)[nH]c(-c3cn(Cc4ccccc4)cn3)nc2c1 , the value recorded as its Ki is 740

----------
Biological target: Acetylcholinesterase (Electrophorus electricus) (UniProt O42275)
Sequence (O42275 24-633 limits assumed): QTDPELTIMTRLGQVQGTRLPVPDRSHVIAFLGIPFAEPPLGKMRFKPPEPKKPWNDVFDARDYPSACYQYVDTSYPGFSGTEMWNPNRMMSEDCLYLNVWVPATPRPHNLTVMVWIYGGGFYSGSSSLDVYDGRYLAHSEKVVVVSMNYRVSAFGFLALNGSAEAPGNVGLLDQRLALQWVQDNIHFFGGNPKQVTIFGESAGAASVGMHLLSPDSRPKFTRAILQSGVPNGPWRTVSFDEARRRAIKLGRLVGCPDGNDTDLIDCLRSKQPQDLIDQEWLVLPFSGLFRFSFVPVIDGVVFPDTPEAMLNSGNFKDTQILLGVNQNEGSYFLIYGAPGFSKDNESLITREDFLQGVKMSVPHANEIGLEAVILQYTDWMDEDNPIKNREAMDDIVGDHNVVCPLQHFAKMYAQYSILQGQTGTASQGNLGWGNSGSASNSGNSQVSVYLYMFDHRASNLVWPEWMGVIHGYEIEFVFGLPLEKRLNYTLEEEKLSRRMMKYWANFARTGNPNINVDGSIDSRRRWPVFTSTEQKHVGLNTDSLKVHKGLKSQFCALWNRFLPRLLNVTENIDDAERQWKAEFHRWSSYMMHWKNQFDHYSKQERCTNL
Test: Inhibition of electric eel AChE using acetylthiocholine iodide as substrate at 20 uM incubated for 20 mins by Ellman's method relative to control
reported-property: inhibition (%)
Return type: number; implicit unit %.

Here is how some compounds turned out for inhibition.
O=c1[nH]c(C2CCN(Cc3ccccc3)CC2)nc2ccccc12 :: 63.3
CN1CCN(c2ccc(-c3nc4ccc(Br)cc4c(=O)[nH]3)cc2)CC1 :: 60.8

// next entry
Given item COc1cc(-c2nc3ccc(NC(=O)CCN4CCCCC4)cc3c(=O)[nH]2)cc(OC)c1OC , the value recorded as its inhibition is 26.1
